- Assay target: Vitamin D3 receptor (Homo sapiens)
- Assay name: qHTS assay for small molecule agonists of vitamin D receptor signaling (AID 588543)
- Assay setup: HEK293T VDR-UAS-bla, beta-lactamase ratio, 16 h; series mostly up to 76.8 µM
Results filed as inconclusive are left out. Active and inactive are the calls of the source. Calls follow the shape of the full dose curve.
Value kind: outcome

These recorded examples may help you get a feel for the data.
INSERT INTO assay_data (compound, value_kind, observed) VALUES
  ('Cc1ccc(C(C)(C)C)cc1', 'outcome', 'inactive'),
  ('C(=C/c1ccccc1)/c1ccccc1', 'outcome', 'inactive'),
  ('CSc1ccc(C=O)cc1', 'outcome', 'inactive'),
  ('Nc1cc(Cl)c(N)c(Cl)c1', 'outcome', 'inactive'),
  ('O=[N+]([O-])c1ccc(NCCO)c(OCCO)c1', 'outcome', 'inactive');

Hello, I am looking for reported outcome with Vitamin D3 receptor (Homo sapiens) for O=C(O)CCSSCCC(=O)O . Could you help? inactive

Param item: CNC(=O)c1ccccc1 inactive
